System: P. falciparum stage V gametocytes
Parameters: BacTiter-Glo ATP luminescence viability of purified stage V gametocytes in 384-well plates, per cent inhibition versus DMSO
Conditions: 48 h, 5 µM; inhibitor
Hit rate of the full screen: of about 13,000 compounds, about 3,200 (25%) showed an effect of 50% or more. The list shows a part of the results.
Listed here: items and their measured % Inhibition.

[
  {
    "compound": "O=[N+]([O-])c1cccc(CNCC2CCN(Cc3ccc(-c4ccccc4)cc3)CC2)c1",
    "measurement_target": "P. falciparum stage V gametocytes",
    "u": "%",
    "% Inhibition": 17.3
  },
  {
    "compound": "Cc1ccnc2nc(C(=O)Nc3cc(Cl)ccc3N3CCOCC3)nn12",
    "measurement_target": "P. falciparum stage V gametocytes",
    "u": "%",
    "% Inhibition": 7.323
  },
  {
    "compound": "COc1cc(Cc2c(C)nc3nc(N)nc(N)c3c2C)c(Br)c(OC)c1OC",
    "measurement_target": "P. falciparum stage V gametocytes",
    "u": "%",
    "% Inhibition": 1.652
  },
  {
    "compound": "CC(C(=O)N1CCCC1)N1CCN(S(=O)(=O)c2ccc(C(C)(C)C)cc2)CC1 (stereo not shown)",
    "measurement_target": "P. falciparum stage V gametocytes",
    "u": "%",
    "% Inhibition": 54.13
  },
  {
    "compound": "CCN(CC)CCN(Cc1ccc(-c2ccc(C(F)(F)F)cc2)cc1)C(=O)Cn1c(CCc2cccc(F)c2F)nc(=O)c2cc(F)c(F)cc21",
    "measurement_target": "P. falciparum stage V gametocytes",
    "u": "%",
    "% Inhibition": 67.52
  },
  {
    "compound": "CC(Oc1ccc(Cl)cc1)C(=O)Nc1cc(C(F)(F)F)ccc1N1CCOCC1 (stereo not shown)",
    "measurement_target": "P. falciparum stage V gametocytes",
    "u": "%",
    "% Inhibition": 3.686
  },
  {
    "compound": "Cc1ccc(S(=O)(=O)N2CCCN(C(=O)c3cc(-c4ccccc4)n[nH]3)CC2)cc1",
    "measurement_target": "P. falciparum stage V gametocytes",
    "u": "%",
    "% Inhibition": 32.96
  },
  {
    "compound": "O=C(/C=C/c1ccc(Cl)c(Cl)c1)NCCCCCN1CCCN(C(=O)Nc2ccc(F)c(F)c2)CC1",
    "measurement_target": "P. falciparum stage V gametocytes",
    "u": "%",
    "% Inhibition": -25.07
  },
  {
    "compound": "CS(=O)(=O)Cc1cccc(Nc2ncc(Cl)c(Nc3cccnc3C(N)=O)n2)c1",
    "measurement_target": "P. falciparum stage V gametocytes",
    "u": "%",
    "% Inhibition": -54.44
  },
  {
    "compound": "O=[N+]([O-])c1cccc(CNCC2CCN(Cc3ccc(O)cc3)CC2)c1",
    "measurement_target": "P. falciparum stage V gametocytes",
    "u": "%",
    "% Inhibition": 5.704
  },
  {
    "compound": "Br.CC[C@H]1CN2CCc3cc(OC)c(OC)cc3[C@@H]2C[C@@H]1CC1=NCCc2c1[nH]c1ccc(OCc3ccccc3)cc21",
    "measurement_target": "P. falciparum stage V gametocytes",
    "u": "%",
    "% Inhibition": 69.01
  },
  {
    "compound": "COc1ccc(CN2CCC(CNCC(c3ccccc3)c3ccccc3)CC2)cc1",
    "measurement_target": "P. falciparum stage V gametocytes",
    "u": "%",
    "% Inhibition": 89.13
  },
  {
    "compound": "CCCc1cc(Cc2cnc(N)nc2N)cc2c1OC(C)(C)C2",
    "measurement_target": "P. falciparum stage V gametocytes",
    "u": "%",
    "% Inhibition": -0.08597
  },
  {
    "compound": "O=C(Nc1ccc(C(F)(F)F)cc1)c1cc(Br)cnc1NCCCn1ccnc1",
    "measurement_target": "P. falciparum stage V gametocytes",
    "u": "%",
    "% Inhibition": 4.282
  },
  {
    "compound": "CC1(C)N=C(N)N=C(N)N1OCCCNC(=O)c1ccc([N+](=O)[O-])cc1",
    "measurement_target": "P. falciparum stage V gametocytes",
    "u": "%",
    "% Inhibition": 6.997
  },
  {
    "compound": "CC1(C)N=C(NC(=O)c2ccc([N+](=O)[O-])cc2)N=C(N)N1OCc1ccc2ccccc2c1",
    "measurement_target": "P. falciparum stage V gametocytes",
    "u": "%",
    "% Inhibition": 48.26
  }
]

Ref: paper PMC4552634
